IC50 by entry:
System: L6
Test: Cytotoxicity against rat L6 cells
Format: cell-based
Give a bare numeral; the unit µM is implied.

INSERT INTO results (line_notation, reading) VALUES
  ('CC(C)(C)OC(=O)N1CCN(C(=O)OC(C)(C)C)C1=Nc1ccc(S(=O)(=O)c2ccc(N=C3N(C(=O)OC(C)(C)C)CCN3C(=O)OC(C)(C)C)cc2)cc1', 56.4);

Inquiry: What measured IC50 goes with c1cc(N2CCN(c3ccc(NC4=NCCN4)cc3)CC2)ccc1NC1=NCCN1 ?
Reply text: 104

Inquiry: How about this compound: c1ccc(Nc2ccc(NC3=NCCN3)cc2)cc1
Reply text: 90.7

###

Assay: Binding affinity for DNA assessed as thermal melting temperature
Entries and their ΔTm values follow.
Report as a plain number; the unit °C is understood.

Some entries whose results are on file:
INSERT INTO results (line_notation, readout_label, units, reading) VALUES
  ('c1cc2c(cc1NC1=NCCN1)Cc1ccc(NC3=NCCN3)cc1C2', 'ΔTm', '°C', 33.2),
  ('Cl.O=C(Nc1ccc(NC2=NCCN2)cc1)Nc1ccc(NC2=NCCN2)cc1', 'ΔTm', '°C', 31),
  ('N=C(N)c1ccc(OCCCCCOc2ccc(C(=N)N)cc2)cc1', 'ΔTm', '°C', 32.3),
  ('Cl.N=C(N)Nc1ccc(NC(=S)Nc2ccc(NC(=N)N)cc2)cc1', 'ΔTm', '°C', 23),
  ('Cl.N=C(N)Nc1ccc(NC(=O)Nc2ccc(NC(=N)N)cc2)cc1', 'ΔTm', '°C', 24.1),
  ('N=C(N)Nc1ccc(Cc2ccc(NC(=N)N)cc2)cc1', 'ΔTm', '°C', 15),
  ('N=C(N)Nc1ccc(Oc2ccc(NC(=N)N)cc2)cc1', 'ΔTm', '°C', 22.1),
  ('c1cc(Oc2ccc(NC3=NCCN3)cc2)ccc1NC1=NCCN1', 'ΔTm', '°C', 27.1),
  ('N=C(N)Nc1ccc(Sc2ccc(NC(=N)N)cc2)cc1', 'ΔTm', '°C', 20.1),
  ('Cl.Cl.N=C(N)Nc1ccc(NC(=O)c2ccc(NC(=N)N)cc2)cc1', 'ΔTm', '°C', 40.1);

Inquiry: Can you share its ΔTm? I mean this molecule: N=C(N)Nc1ccc(CCc2ccc(NC(=N)N)cc2)cc1
Reply text: 26.1

Inquiry: How about c1cc(NC2=NCCN2)ccc1CCc1ccc(NC2=NCCN2)cc1 ?
Reply text: 31.2

Inquiry: Continue with CCCCC[P+](CCCCC)(CCCCC)Cc1ccc(C(=O)c2ccc(C[P+](CCCCC)(CCCCC)CCCCC)cc2)cc1.[Br-].[Br-]
Reply text: 1.2

Inquiry: Query c1cc(Sc2ccc(NC3=NCCN3)cc2)ccc1NC1=NCCN1 next
Reply text: 24.1

Inquiry: Follow-up item: c1cc(Nc2ccc(NC3=NCCN3)cc2)ccc1NC1=NCCN1
Reply text: 38.5

###

System: L6
Test: Cytotoxicity against rat L6 cells
Assay type: cell-based
Each item that follows carries a reported IC50.

Examples with answers:
INSERT INTO measurements (line_notation, reading) VALUES
  ('N=C(N)Nc1ccc2c(c1)OCCO2', '> 391 µM'),
  ('CC(=O)c1ccc(NC2=NCCN2)cc1', '> 375 µM'),
  ('c1cc(NC2=NCCN2)ccc1CCc1ccc(NC2=NCCN2)cc1', '34.9 µM'),
  ('N=C(N)Nc1ccc(N2CCN(c3ccc(NC(=N)N)cc3)CC2)cc1', '46.4 µM');

# input for lookup
Inquiry: So what IC50 did CC(C)(C)OC(=O)N1CCN(C(=O)OC(C)(C)C)C1=Nc1ccc(Nc2ccc(N=C3N(C(=O)OC(C)(C)C)CCN3C(=O)OC(C)(C)C)cc2)cc1 get with L6?
Reply text: 9.8 µM
